Recorded values, source the Human Domainome abundance scans (Beltran et al. 2025).

B1: Homeobox protein cut-like 2, residues 895 to 963; numbered along this chain, O14529 (parent)
chain: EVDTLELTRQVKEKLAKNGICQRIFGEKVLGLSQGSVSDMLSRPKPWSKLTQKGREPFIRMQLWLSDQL

variants of: B1; test: abundance fitness (aPCA) (normalised: wild type 0, dead -1); higher = more abundant; growth selection in yeast, the domain comes from the species named; settings: Homo sapiens

{"columns": ["Chain", "abundance fitness"],
 "data": [
  ["EVDTLELTRQVKEKLAKNGICQRIFGEKVLGNSQGSVSDMLSRPKPWSKLTQKGREPFIRMQLWLSDQL [L32N]", -0.305],
  ["EVDTLELTHQVKEKLAKNGICQRIFGEKVLGLSQGSVSDMLSRPKPWSKLTQKGREPFIRMQLWLSDQL [R9H]", -0.358],
  ["EVDTLELTRQVKEKLAKNGICQRIFGEKVLGMSQGSVSDMLSRPKPWSKLTQKGREPFIRMQLWLSDQL [L32M]", -0.032],
  ["EVDTLELTRRVKEKLAKNGICQRIFGEKVLGLSQGSVSDMLSRPKPWSKLTQKGREPFIRMQLWLSDQL [Q10R]", -0.038],
  ["EVDTLELTRQVKEKLAKNGICQRIFGEKVLGLSQGSVSDMLSRPKPWSKLTQKGREPFIRMQPWLSDQL [L63P]", -0.728],
  ["EVDTLELTRQVKEKLAKNGICQRIFGEKVLGLSQGSVSDMLSRPKPWSKLTQKMREPFIRMQLWLSDQL [G54M]", 0.004],
  ["EVDTLELTRQVKEKLAKNGICQRIFGEKLLGLSQGSVSDMLSRPKPWSKLTQKGREPFIRMQLWLSDQL [V29L]", -0.108],
  ["EVDTLELTRQVKEKLAKNGICQRIFGEKVLSLSQGSVSDMLSRPKPWSKLTQKGREPFIRMQLWLSDQL [G31S]", -0.134],
  ["EVDTLELTRQVKEKLAKNGICQRIFGEKVLGLSQGSVSDMLSRPKPWSKLTQKGREPEIRMQLWLSDQL [F58E]", -0.763],
  ["EVDTLELTRQVKEKLAKCGICQRIFGEKVLGLSQGSVSDMLSRPKPWSKLTQKGREPFIRMQLWLSDQL [N18C]", -0.354],
  ["EVDTLELTRQVKEKLAKNGICQRIFGEKVLGLSQGSVSDMLSRPKPWSKLTQKGREPFIRMQLWLSDQW [L69W]", -0.137],
  ["EVDTLELTRQVKEKLAKNGICQRIFGEKVLGLSQGSVSDMLSRMKPWSKLTQKGREPFIRMQLWLSDQL [P44M]", -0.196],
  ["EVDTLELTRQVKEKLAKNGICQRIFGEKVLGLSKGSVSDMLSRPKPWSKLTQKGREPFIRMQLWLSDQL [Q34K]", 0.069],
  ["EVDTLELTRQVKEKLAKNGICQRIFGEKVLGLSQGSVSDDLSRPKPWSKLTQKGREPFIRMQLWLSDQL [M40D]", -0.059],
  ["EVDTLELTRQGKEKLAKNGICQRIFGEKVLGLSQGSVSDMLSRPKPWSKLTQKGREPFIRMQLWLSDQL [V11G]", -0.146],
  ["EVDTLELTRQVKEKLAKNGICQRIFGEKVLGLSQGSVSDMLSRPKPWSKLTQKGREPFIRMQLWLADQL [S66A]", -0.045],
  ["EVDTLELTRCVKEKLAKNGICQRIFGEKVLGLSQGSVSDMLSRPKPWSKLTQKGREPFIRMQLWLSDQL [Q10C]", -0.343],
  ["EVDTLELTRHVKEKLAKNGICQRIFGEKVLGLSQGSVSDMLSRPKPWSKLTQKGREPFIRMQLWLSDQL [Q10H]", -0.228],
  ["EVDTLELTRQVKEKLAKNGICQRCFGEKVLGLSQGSVSDMLSRPKPWSKLTQKGREPFIRMQLWLSDQL [I24C]", -0.243],
  ["EVDTLELSRQVKEKLAKNGICQRIFGEKVLGLSQGSVSDMLSRPKPWSKLTQKGREPFIRMQLWLSDQL [T8S]", -0.115],
  ["EVDTLELTRQVKEKLAKNPICQRIFGEKVLGLSQGSVSDMLSRPKPWSKLTQKGREPFIRMQLWLSDQL [G19P]", -0.005],
  ["EVDTLELTRQVKEKLAKNGICQRIFGEKVLGLSQGSVSDMLSRPKPWSKLTQKGRGPFIRMQLWLSDQL [E56G]", -0.245]
]}
